Source of measurements: patent US10689377B2

Recorded pIC50 by entry
biological target: KRas G12C (Homo sapiens, UniProt P01116, G12C); test: Cellular inhibition of KRas G12C measured by Phospho-ERK in NCI-H358 cells; format: cell-based; settings: pERK(Thr202/Tyr204) normalized with GAPDH, NCI-H358 cells, 3 hours; read-out: IC50
Sequence (P01116 1-188 isoform P01116-2 G12C): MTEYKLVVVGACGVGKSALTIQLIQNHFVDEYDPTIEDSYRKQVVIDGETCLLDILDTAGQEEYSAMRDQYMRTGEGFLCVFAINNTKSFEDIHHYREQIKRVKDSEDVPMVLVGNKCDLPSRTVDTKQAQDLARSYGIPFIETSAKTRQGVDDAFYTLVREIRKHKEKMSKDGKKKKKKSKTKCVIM
pIC50: −log10 of the molar value.

# molecule, target or test system, pIC50
rows = [
    ("C=CC(=O)N1CCN(c2nc(OC[C@@H]3CCCN3C)nc3c2CCN(c2cccc(OC)c2C)C3)C[C@@H]1CC#N", "KRas G12C (Homo sapiens, UniProt P01116, G12C)", "6.00 to 10.00"),
]

[in] Need pIC50 of C=CC(=O)N1CCN(c2nc(OC(CO)CN3CCOCC3)nc3c2CCN(c2cc(O)cc4ccccc24)C3)CC1 (centres unmarked) , thanks.
[out] < 6.00

[in] Bench note: what pIC50 did C=CC(=O)N1CCN(c2nc(OC[C@@H]3CCCN3C)nc3c2CCN(c2cc(O)cc4ccccc24)C3)C[C@@H]1CC#N show?
[out] 6.00 to 10.00

[in] Reported pIC50 for C=CC(=O)N1CCN(c2nc(OC[C@@H]3CCCN3C)nc3c2CCN(c2ccccc2C(F)(F)F)C3)C[C@@H]1CC#N [Example 379] : what is it?
[out] 6.00 to 10.00

----------
molecular target: KRas G12C (Homo sapiens, UniProt P01116, G12C); assay: Cellular inhibition of KRas G12C measured by Phospho-ERK in NCI-H358 cells; assay type: cell-based; conditions: pERK(Thr202/Tyr204) normalized with GAPDH, NCI-H358 cells, 3 hours; read-out: IC50
pIC50: −log10 of the molar value.
Here, each record is paired with measured pIC50 data.

Worked cases, pIC50 given:
# compound, pIC50
data = [
    ("C=CC(=O)N1CCN(c2nc(OC[C@H]3CCN(C)C3)nc3c2CCN(c2cccc4ccccc24)C3)CC1CC#N (stereo partly shown)", "6.00 to 10.00"),
    ("C=CC(=O)N1CCN(c2nc(OCCN3CCC[C@@H](F)C3)nc3c2CCN(c2cc(O)cc4ccccc24)C3)CC1", "< 6.00"),
    ("C=CC(=O)N1CCN(c2nc(OCCCN3CCOCC3)nc3c2CCN(c2cc(O)cc4cccnc24)C3)CC1", "< 6.00"),
    ("C=CC(=O)N1CCN(c2nc(OC[C@@H]3CCCN3C)nc3c2CCN(c2cncc(F)c2C(F)(F)F)C3)C[C@@H]1CC#N", "6.00 to 10.00"),
    ("C=CC(=O)N1CCN(c2nc(OC[C@@H]3CCCN3C)nc3c2CCN(c2c(C)ccc4[nH]ncc24)C3)CC1CC#N (stereo partly shown)", "6.00 to 10.00"),
]

[in] Entry C=CC(=O)N1CCN(c2nc(OC[C@@H]3CCN(C)C3)nc3c2CCN(c2cc(O)cc4ccccc24)C3)CC1CC#N (stereo partly shown) has what pIC50?
[out] 6.00 to 10.00

[in] What value of pIC50 has been recorded for this entry: C=CC(=O)N1CCN(c2nc(OC[C@@H]3CCCN3C)nc3c2CCN(c2nccc4ccccc24)C3)CC1CC#N (stereo partly shown) [Example 258]
[out] < 6.00

[in] Consider the compound C=CC(=O)N1CCN(c2ncnc3c2CCN(c2cc(O)ccc2F)C3)CC1 and give its measured pIC50.
[out] < 6.00

[in] So what does the record say about pIC50 for C=CC(=O)N1CCN(c2ncnc3c2CCN(c2cncc4ccccc24)C3)CC1 ?
[out] < 6.00

[in] Requested read-out: pIC50. Entry: C=CC(=O)N1CCN(c2nc(OC[C@@H]3CCCN3C)nc3c2CCN(c2cnccc2OC)C3)C[C@@H]1CC#N
[out] < 6.00

[in] Bench note: what pIC50 did CN(C)C/C=C/C(=O)N1CCN(c2nc(OC[C@@H]3C[C@@H](O)CN3C)nc3c2CCN(c2cccc(F)c2C(F)(F)F)C3)C[C@@H]1CC#N show?
[out] 6.00 to 10.00
